Test system: HCI03 (cells of an ER-positive luminal breast cancer xenograft)
TEST NAME: cell viability (% of vehicle); higher = less cytotoxic;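 also: PDX cells carrying CMV promoter-driven luciferase, viability read as total photon flux per second by IVIS imaging following D-luciferin, vehicle control 0.1% DMSO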
CONDITION CONTEXT: 10 µM; 72 h
Lab note: anything with cell viability below 100 is marked fulfilled; values at 100 or higher are marked not fulfilled.

Is 100 strictly greater than the compound's reported cell viability? compound: Cc1ccc(-n2[nH]c(C)c(NN=C3C=CC=C(c4cccc(C(=O)O)c4)C3=O)c2=O)cc1C fulfilled

Is 100 strictly greater than the compound's reported cell viability? compound: Cc1ccc(Nc2nccc(N(C)c3ccc4c(C)n(C)nc4c3)n2)cc1S(N)(=O)=O.Cl fulfilled

Is 100 strictly greater than the compound's reported cell viability? compound: Cl.NNc1nncc2ccccc12 [Hydralazine HCl] not fulfilled

Is 100 strictly greater than the compound's reported cell viability? compound: CC(=O)O.NC(N)=NN=Cc1c(Cl)cccc1Cl [Guanabenz Acetate] not fulfilled

Is 100 strictly greater than the compound's reported cell viability? compound: CC(C)(C)NCC(O)c1cc(O)cc(O)c1.CC(C)(C)NCC(O)c1cc(O)cc(O)c1.O=S(=O)(O)O (stereo not drawn) [Terbutaline Sulfate] not fulfilled

Is 100 strictly greater than the compound's reported cell viability? compound: CCCNCC(O)COc1ccccc1C(=O)CCc1ccccc1.Cl (stereo not drawn) [Propafenone HCl] not fulfilled

Is 100 strictly greater than the compound's reported cell viability? compound: Cc1ncc([N+](=O)[O-])n1CC(C)O (stereo not drawn) not fulfilled

Is 100 strictly greater than the compound's reported cell viability? compound: Nc1nc(Cl)nc2c1ncn2C1CC(O)C(CO)O1 (stereo not drawn) not fulfilled

* * *

System: HCI13 (cells of an ER-positive luminal breast cancer xenograft)
TEST NAME: cell viability (% of vehicle); higher = less cytotoxic
CONDITION CONTEXT: 10 µM; 72 h
Lab note: anything with cell viability below 100 is marked 1; values at 100 or higher are marked 0.

Is 100 strictly greater than the compound's reported cell viability? compound: Cc1cc(NS(=O)(=O)c2ccc(N)cc2)no1 [Sulfamethoxazole] 0

Is 100 strictly greater than the compound's reported cell viability? compound: OCC1OC(c2ccc(Cl)c(Cc3ccc(OC4CCOC4)cc3)c2)C(O)C(O)C1O (configuration not stated) 1

Is 100 strictly greater than the compound's reported cell viability? compound: O=C(NC(Cc1cc(=O)[nH]c2ccccc12)C(=O)O)c1ccc(Cl)cc1 (configuration not stated) [Rebamipide] 0

Is 100 strictly greater than the compound's reported cell viability? compound: CC[C@]1(O)C[C@H]2CN(CCc3c([nH]c4ccccc34)[C@@](C(=O)OC)(c3cc4c(cc3OC)N(C=O)[C@H]3[C@@](O)(C(=O)OC)C(OC(C)=O)[C@]5(CC)C=CCN6CC[C@]43C65)C2)C1.O=S(=O)(O)O (some centres not stated) [Vincristine] 1

Is 100 strictly greater than the compound's reported cell viability? compound: COc1ccc(CNc2nc(N3CCCC3CO)ncc2C(=O)NCc2ncccn2)cc1Cl (configuration not stated) [Avanafil] 0

Is 100 strictly greater than the compound's reported cell viability? compound: O=C1C(CCC(O)c2ccc(F)cc2)C(c2ccc(O)cc2)N1c1ccc(F)cc1 (configuration not stated) [Ezetimibe] 0

* * *

Tested on: HCI11 (cells of an ER-positive luminal breast cancer xenograft)
TEST NAME: cell viability (% of vehicle); higher = less cytotoxic
CONDITION CONTEXT: 10 µM; 72 h
Exercise: for every item that follows, state its recorded cell viability.

Value of cell viability reported for the compound COc1cc2nc(N(C)CCCNC(=O)C3CCCO3)nc(N)c2cc1OC.Cl (stereo unspecified) [Alfuzosin HCl] is 113

Value of cell viability reported for the compound CC(=O)O[C@@]12CO[C@@H]1C[C@H](O)[C@@]1(C)C(=O)[C@H](O)C3=C(C)[C@@H](OC(=O)[C@H](O)[C@@H](NC(=O)OC(C)(C)C)c4ccccc4)C[C@@](O)([C@@H](OC(=O)c4ccccc4)[C@H]21)C3(C)C is 124

Value of cell viability reported for the compound CCCCCCOC(=O)N=C(N)c1ccc(NCc2nc3cc(C(=O)N(CCC(=O)OCC)c4ccccn4)ccc3n2C)cc1.CS(=O)(=O)O [Dabigatran etexilate mesylate] is 99.4

Value of cell viability reported for the compound O=c1[nH]c(=O)n(C2CCCO2)cc1F (stereo unspecified) is 112

Value of cell viability reported for the compound O=C([O-])Cc1ccccc1Nc1c(Cl)cccc1Cl.[Na+] [Diclofenac Sodium] is 73.9

Value of cell viability reported for the compound Cl.O=C1OC(CN2CCOCC2)CN1N=Cc1ccc([N+](=O)[O-])o1 (stereo unspecified) [Furaltadone HCl] is 63.7

Value of cell viability reported for the compound CCCCCCCCc1ccc(CCC(N)(CO)CO)cc1.Cl is 33.8

Value of cell viability reported for the compound Cc1cn(-c2cc(/N=C(\O)c3ccc(C)c(Nc4nccc(-c5cnccn5)n4)c3)cc(C(F)(F)F)c2)cn1 is 92.9

Value of cell viability reported for the compound CC(C(=O)[O-])c1cccc(Oc2ccccc2)c1.CC(C(=O)[O-])c1cccc(Oc2ccccc2)c1.[Ca+2] (stereo unspecified) is 94.3

Value of cell viability reported for the compound CC1=C(CC(=O)O)c2cc(F)ccc2C1=Cc1ccc(S(C)=O)cc1 (stereo unspecified) is 76.2

Value of cell viability reported for the compound CN(C)C(=N)N=C(N)N.Cl [Metformin HCl] is 86.2

Value of cell viability reported for the compound NC(=O)Cc1cccc(C(=O)c2ccccc2)c1N is 95.4

Value of cell viability reported for the compound CC12C=CC(=O)C=C1CCC1C3CC(O)C(O)(C(=O)CO)C3(C)CC(O)C12F (stereo unspecified) is 130

Value of cell viability reported for the compound CN(CCOc1ccc(NS(C)(=O)=O)cc1)CCc1ccc(NS(C)(=O)=O)cc1 [Dofetilide] is 94.2

Value of cell viability reported for the compound CC1CC(=O)NN=C1c1ccc(NN=C(C#N)C#N)cc1 (stereo unspecified) is 139

Value of cell viability reported for the compound O=C(O)CCNC(=O)c1ccccc1 is 98.2
